STUDY_TARGET: Fes (UniProt P07332)
Sequence (P07332 whole entry, looked up): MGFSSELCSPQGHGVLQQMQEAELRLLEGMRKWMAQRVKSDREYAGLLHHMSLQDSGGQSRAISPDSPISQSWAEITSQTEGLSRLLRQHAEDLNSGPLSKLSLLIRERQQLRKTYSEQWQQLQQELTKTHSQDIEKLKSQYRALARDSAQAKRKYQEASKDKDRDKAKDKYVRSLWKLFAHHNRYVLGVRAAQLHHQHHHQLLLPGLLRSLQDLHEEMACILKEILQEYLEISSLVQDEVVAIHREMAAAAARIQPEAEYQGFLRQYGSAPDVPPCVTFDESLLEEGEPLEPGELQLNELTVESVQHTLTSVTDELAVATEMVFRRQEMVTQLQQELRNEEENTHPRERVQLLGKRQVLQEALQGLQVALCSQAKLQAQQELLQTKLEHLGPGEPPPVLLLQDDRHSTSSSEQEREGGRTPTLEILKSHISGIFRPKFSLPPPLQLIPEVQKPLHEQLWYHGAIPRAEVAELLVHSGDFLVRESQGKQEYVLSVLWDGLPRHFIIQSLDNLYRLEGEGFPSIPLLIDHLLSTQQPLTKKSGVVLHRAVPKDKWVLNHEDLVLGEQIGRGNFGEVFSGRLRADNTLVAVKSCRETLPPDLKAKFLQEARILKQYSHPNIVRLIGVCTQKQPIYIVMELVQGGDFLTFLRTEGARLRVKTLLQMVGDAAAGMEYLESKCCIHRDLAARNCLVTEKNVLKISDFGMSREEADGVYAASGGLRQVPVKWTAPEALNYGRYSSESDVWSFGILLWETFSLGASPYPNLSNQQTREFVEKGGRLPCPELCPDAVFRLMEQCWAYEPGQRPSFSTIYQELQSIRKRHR
ASSAY_DETAILS: phosphorylation enrichment, bacterial display (enrichment ratio); higher = better substrate or ligand; peptides without Tyr show the background;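 also: 11-residue human phosphosite peptides and single-mutation variants displayed on the E. coli surface, counted by deep sequencing, each peptide's frequency after selection divided by its frequency in the unselected input library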;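 also: frequency after pTyr selection over input frequency; kinase dosed for 20-30% of maximal phosphorylation in three min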
READOUT_TYPE: phosphorylation enrichment

record_sequence="DVCKNYAKAKD [ALB_Y343_E345K]" result_number=0.627
record_sequence="TPGPNYRPGFN [USH2A_Y463_YF]" result_number=0.716
record_sequence="EYYENYIEELK [PARP4_Y218_F215Y]" result_number=1.29
record_sequence="EAEPYYRSLRD [NPHS1_Y1139]" result_number=0.911

---

STUDY_TARGET: Jak2 (UniProt O60674)
Sequence (O60674 whole entry, looked up): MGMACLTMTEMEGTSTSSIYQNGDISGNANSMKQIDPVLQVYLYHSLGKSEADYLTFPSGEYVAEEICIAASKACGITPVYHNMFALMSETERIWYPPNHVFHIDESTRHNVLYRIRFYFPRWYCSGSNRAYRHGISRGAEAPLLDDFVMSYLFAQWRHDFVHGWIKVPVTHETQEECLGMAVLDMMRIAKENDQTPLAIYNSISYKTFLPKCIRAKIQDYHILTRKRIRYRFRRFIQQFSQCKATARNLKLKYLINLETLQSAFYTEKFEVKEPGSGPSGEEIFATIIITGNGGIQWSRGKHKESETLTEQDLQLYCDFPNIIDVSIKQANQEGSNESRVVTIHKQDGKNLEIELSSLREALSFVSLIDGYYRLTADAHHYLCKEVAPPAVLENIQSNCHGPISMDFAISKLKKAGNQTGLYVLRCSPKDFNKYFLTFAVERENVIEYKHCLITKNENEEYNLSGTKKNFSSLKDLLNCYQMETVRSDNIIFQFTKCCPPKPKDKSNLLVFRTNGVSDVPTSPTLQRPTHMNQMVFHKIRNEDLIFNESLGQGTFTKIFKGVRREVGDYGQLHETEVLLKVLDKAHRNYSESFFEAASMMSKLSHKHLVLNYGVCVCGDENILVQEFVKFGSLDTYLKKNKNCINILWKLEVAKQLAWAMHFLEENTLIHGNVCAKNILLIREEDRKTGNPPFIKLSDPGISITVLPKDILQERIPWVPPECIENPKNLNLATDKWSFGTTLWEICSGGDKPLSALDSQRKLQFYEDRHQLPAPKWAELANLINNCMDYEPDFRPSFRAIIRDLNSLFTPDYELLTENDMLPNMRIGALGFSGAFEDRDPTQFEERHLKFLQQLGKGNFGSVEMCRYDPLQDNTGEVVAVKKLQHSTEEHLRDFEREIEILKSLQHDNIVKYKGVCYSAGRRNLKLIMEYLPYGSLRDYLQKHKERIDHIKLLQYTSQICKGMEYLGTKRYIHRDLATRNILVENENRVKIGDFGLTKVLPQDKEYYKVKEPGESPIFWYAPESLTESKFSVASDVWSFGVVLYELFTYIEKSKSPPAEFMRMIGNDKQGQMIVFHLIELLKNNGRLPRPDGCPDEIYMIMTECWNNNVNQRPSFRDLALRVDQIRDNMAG
ASSAY_DETAILS: phosphorylation enrichment, bacterial display (enrichment ratio); higher = better substrate or ligand; peptides without Tyr show the background
So basically every entry gets a class from its phosphorylation enrichment, ranges being I (below 0.7), II (0.7 to below 1), III (1 or more)

record_sequence="GLTSTYAGIRK [ROBO1_Y932]" category_label=I
record_sequence="QADVIYVNTQL [MERTK_Y872]" category_label=III
record_sequence="PVDTYYDSTRG [DYNC2H1_Y2231_M2227V]" category_label=II
record_sequence="YIRRDYEACKA [BBS4_Y48_K46R]" category_label=II
record_sequence="RLGNQYVNVMN [SLC3A1_Y461]" category_label=I
record_sequence="HNLDYYKMTTN [FGFR3_Y648_K650M]" category_label=III
record_sequence="LEFGDYHPLKP [VPS35L_Y32]" category_label=III
record_sequence="DYSLKYATDIP [APC_Y1183]" category_label=III
record_sequence="NFADPYRQLPF [CTNND2_Y503_Q507P_YF]" category_label=I
record_sequence="EILLSDLRTGY [TGM1_Y365_Y365D]" category_label=II
record_sequence="ESLSSYWESAK [APOC2_Y47]" category_label=II
record_sequence="QAEELYFGKMG [YES1_Y159_W158L]" category_label=III
record_sequence="PYRQWYESHYA [RPS8_Y113]" category_label=III
record_sequence="PANMVYSTVEI [SLAMF7_Y304_T302M]" category_label=I
record_sequence="EYKKKYSDADI [CKAP5_Y1860]" category_label=I
record_sequence="QFKDKYLAKHN [CASK_Y712_YF]" category_label=II
record_sequence="SADIAYNFRHG [PAH_Y166_F161S_YF]" category_label=I
record_sequence="RELGEYPLAEY [ALDH1A3_Y492_A493P]" category_label=III
record_sequence="EKDSNYCLCRT [ASIC2_Y357]" category_label=II
record_sequence="LTERGYSFTTK [ACTG1_Y198_T203K]" category_label=III

---

STUDY_TARGET: Hck (UniProt P08631)
Sequence (P08631 whole entry, looked up): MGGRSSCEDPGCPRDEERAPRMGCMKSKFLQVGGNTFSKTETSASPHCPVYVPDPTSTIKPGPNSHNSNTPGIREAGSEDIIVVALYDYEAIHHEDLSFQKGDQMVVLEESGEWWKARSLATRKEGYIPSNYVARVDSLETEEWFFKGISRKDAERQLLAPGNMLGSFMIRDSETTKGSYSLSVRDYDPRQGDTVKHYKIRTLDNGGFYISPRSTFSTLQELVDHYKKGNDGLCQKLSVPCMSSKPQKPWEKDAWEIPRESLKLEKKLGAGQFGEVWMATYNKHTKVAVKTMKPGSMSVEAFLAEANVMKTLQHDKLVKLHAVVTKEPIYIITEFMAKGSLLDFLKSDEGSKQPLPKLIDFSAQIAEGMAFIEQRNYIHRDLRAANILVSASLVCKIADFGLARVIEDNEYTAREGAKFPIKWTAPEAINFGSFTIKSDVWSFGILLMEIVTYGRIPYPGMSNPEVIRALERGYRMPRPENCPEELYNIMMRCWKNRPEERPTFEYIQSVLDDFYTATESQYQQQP
ASSAY_DETAILS: phosphorylation enrichment, bacterial display (enrichment ratio); higher = better substrate or ligand; peptides without Tyr show the background
READOUT_TYPE: phosphorylation enrichment

record_sequence="TDEFEYDELIV [TGM1_Y136_YF]" study_target="Hck (UniProt P08631)" readout_type="phosphorylation enrichment" result_number=1.56
record_sequence="FGTAQYCCRMG [LRRK2_Y2023_I2020T_YF]" study_target="Hck (UniProt P08631)" readout_type="phosphorylation enrichment" result_number=0.518
record_sequence="ESLSSYRESAK [APOC2_Y47_W48R]" study_target="Hck (UniProt P08631)" readout_type="phosphorylation enrichment" result_number=0.305
record_sequence="IDDNEYAFLKA [HNF4A_Y286_YF]" study_target="Hck (UniProt P08631)" readout_type="phosphorylation enrichment" result_number=0.98
record_sequence="KMATAYIRRMS [BCO1_Y264]" study_target="Hck (UniProt P08631)" readout_type="phosphorylation enrichment" result_number=0.425
record_sequence="PVQAAYKKVVA [HBB_Y131_Q132K]" study_target="Hck (UniProt P08631)" readout_type="phosphorylation enrichment" result_number=0.479
record_sequence="QMRLRYLAAEE [CEP120_Y884]" study_target="Hck (UniProt P08631)" readout_type="phosphorylation enrichment" result_number=0.776
record_sequence="SDYSRYARTSI [TERT_Y949_S948R]" study_target="Hck (UniProt P08631)" readout_type="phosphorylation enrichment" result_number=0.428
record_sequence="KLFFHYDPKLC [INSR_Y457_N458D]" study_target="Hck (UniProt P08631)" readout_type="phosphorylation enrichment" result_number=0.327
record_sequence="WHHIFYNELRV [ACTG1_Y91_T89I]" study_target="Hck (UniProt P08631)" readout_type="phosphorylation enrichment" result_number=0.569
record_sequence="LTQRTYMSENA [GPAA1_Y49]" study_target="Hck (UniProt P08631)" readout_type="phosphorylation enrichment" result_number=0.455
record_sequence="EPFEVYRIVPE [IRF8_Y110_K108E_YF]" study_target="Hck (UniProt P08631)" readout_type="phosphorylation enrichment" result_number=2.37
record_sequence="VQSASYLNDCL [MCM3AP_Y864_A867D]" study_target="Hck (UniProt P08631)" readout_type="phosphorylation enrichment" result_number=0.502
record_sequence="QLCVSYPGGFT [PROS1_Y259_N258S_YF]" study_target="Hck (UniProt P08631)" readout_type="phosphorylation enrichment" result_number=0.682
record_sequence="VRFVDYVLFRS [FAM189B_Y361_S358F]" study_target="Hck (UniProt P08631)" readout_type="phosphorylation enrichment" result_number=0.499
record_sequence="SESSYYKSLNL [NGEF_Y289_A286S]" study_target="Hck (UniProt P08631)" readout_type="phosphorylation enrichment" result_number=0.627
record_sequence="IVAREYYSDAD [CAMK2A_Y106_E109D]" study_target="Hck (UniProt P08631)" readout_type="phosphorylation enrichment" result_number=0.525

---

Form field: phosphorylation enrichment (one value per entry).
STUDY_TARGET: Jak2 (UniProt O60674)
ASSAY_DETAILS: phosphorylation enrichment, bacterial display (enrichment ratio); higher = better substrate or ligand; peptides without Tyr show the background
READOUT_TYPE: phosphorylation enrichment

record_sequence="PADRAYSWFQH [NDST1_Y711_YF]" readout_type="phosphorylation enrichment" result_number=1.03
record_sequence="REENGYNTYAS [FGF10_Y161_I156R]" readout_type="phosphorylation enrichment" result_number=1.27
record_sequence="EKQVAYCPSGK [ROS1_Y2323]" readout_type="phosphorylation enrichment" result_number=0.638
record_sequence="KLPYPYDDPFS [GPX2_Y127]" readout_type="phosphorylation enrichment" result_number=0.954
record_sequence="FQKNVYSEELR [LMNA_Y211_I210V]" readout_type="phosphorylation enrichment" result_number=0.672
record_sequence="NIFSFYLSRDP [CTSD_Y232]" readout_type="phosphorylation enrichment" result_number=0.951
record_sequence="QEIATYRPLLE [KRT14_Y415_R417P]" readout_type="phosphorylation enrichment" result_number=1.04
record_sequence="DRKRQYELLKL [KIF4B_Y684]" readout_type="phosphorylation enrichment" result_number=0.876
record_sequence="RELSWYRGRRP [HESX1_Y106]" readout_type="phosphorylation enrichment" result_number=0.895
record_sequence="TVVGLYQKSSL [MYH7_Y609]" readout_type="phosphorylation enrichment" result_number=0.849
record_sequence="GRDQPYSGAGD [TYRO3_Y828]" readout_type="phosphorylation enrichment" result_number=0.508
record_sequence=AEVIWYKGDEV readout_type="phosphorylation enrichment" result_number=1.42
record_sequence="LALTVYADCLA [ABCA4_Y2063_G2059A]" readout_type="phosphorylation enrichment" result_number=1.53

---

STUDY_TARGET: FGFR3 (UniProt P22607)
Sequence (P22607 whole entry, looked up): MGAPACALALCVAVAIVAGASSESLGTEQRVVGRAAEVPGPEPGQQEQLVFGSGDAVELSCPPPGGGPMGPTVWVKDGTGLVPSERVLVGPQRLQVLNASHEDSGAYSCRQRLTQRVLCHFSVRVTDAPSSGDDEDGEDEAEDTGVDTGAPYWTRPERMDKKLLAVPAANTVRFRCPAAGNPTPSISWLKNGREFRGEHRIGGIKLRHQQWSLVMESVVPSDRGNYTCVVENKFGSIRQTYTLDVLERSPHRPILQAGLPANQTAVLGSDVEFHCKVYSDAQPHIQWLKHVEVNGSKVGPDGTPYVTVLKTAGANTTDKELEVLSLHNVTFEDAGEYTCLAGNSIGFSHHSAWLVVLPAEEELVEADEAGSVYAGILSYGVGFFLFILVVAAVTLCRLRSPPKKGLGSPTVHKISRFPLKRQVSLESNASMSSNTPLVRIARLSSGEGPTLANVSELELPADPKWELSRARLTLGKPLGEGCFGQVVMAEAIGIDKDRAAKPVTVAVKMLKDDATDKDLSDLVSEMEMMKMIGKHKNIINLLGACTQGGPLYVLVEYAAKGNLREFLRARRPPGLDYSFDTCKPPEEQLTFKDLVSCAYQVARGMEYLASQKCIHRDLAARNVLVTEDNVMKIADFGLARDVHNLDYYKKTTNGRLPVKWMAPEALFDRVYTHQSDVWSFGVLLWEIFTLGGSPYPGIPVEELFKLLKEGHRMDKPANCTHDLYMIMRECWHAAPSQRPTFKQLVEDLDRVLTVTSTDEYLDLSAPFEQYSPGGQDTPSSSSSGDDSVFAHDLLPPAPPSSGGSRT
ASSAY_DETAILS: phosphorylation enrichment, bacterial display (enrichment ratio); higher = better substrate or ligand; peptides without Tyr show the background
Label scheme for phosphorylation enrichment: lower than 0.6 is NOT MET, 0.6 and above is MET.

record_sequence="DRIVNYSRASV [ATP7A_Y1459_I1464V]" category_label="NOT MET"
record_sequence="TLNHQYDFTFD [CSNK1A1_Y292_YF]" category_label=MET
record_sequence="AGKEEYSAMRD [HRAS_Y64_Q61K]" category_label="NOT MET"
record_sequence="SWKRRYFLLRA [APBB1IP_Y331]" category_label=MET
record_sequence="KPEKTYGLRNE [CEP43_Y267_K271N]" category_label="NOT MET"
record_sequence="LSPPVYLTNEW [NRK_Y885_I880L]" category_label=MET
record_sequence="FLTQHYDAKPQ [ANG_Y38]" category_label="NOT MET"
record_sequence="CPPKVYELMRA [ABL2_Y515]" category_label=MET
record_sequence="RFFTTYDTNGR [CLCA1_Y665_YF]" category_label=MET
record_sequence="VATSWYRSPEL [CDKL5_Y177_R175S]" category_label="NOT MET"
record_sequence="GYKVRYATWSI [FGFR1_Y210]" category_label=MET
record_sequence="VRRRSYSAGNA [KANK1_Y324_K321R]" category_label=MET
record_sequence="SVTCTYSPALF [TP53_Y126_N131Y_YF]" category_label=MET
record_sequence="HYGNNYRDVLQ [MACC1_Y803]" category_label="NOT MET"
record_sequence="GGMAEYTRLHN [EHHADH_Y4]" category_label="NOT MET"
record_sequence="ALWFIYSHTRS [ENG_Y614_YF]" category_label=MET
record_sequence="VGSEDYGRDLT [SPTAN1_Y1792]" category_label=MET
record_sequence="GFRVFYTPDSR [PTPRF_Y451_YF]" category_label=MET
record_sequence="GPSTPYTKSKC [SMARCC2_Y324_R329C]" category_label="NOT MET"
record_sequence="HCHEGYVLHGA [SVEP1_Y2921_I2922V]" category_label=MET
record_sequence="DYGSGYPNDPK [RNASEH2A_Y210]" category_label=MET
record_sequence="YGPPQYNMQYS [ERBB2IP_Y977_I979M]" category_label="NOT MET"
record_sequence="HTVEDYQAIVD [CCT7_Y263]" category_label=MET
record_sequence="VFLGAYDCFLP [SLC22A5_Y486_R488C_YF]" category_label=MET
record_sequence="GLTSTYAGIRK [ROBO1_Y932]" category_label="NOT MET"
record_sequence="LARDMDDKEFF [MET_Y1230_Y1230D_YF]" category_label=MET
record_sequence="WHYTFYNELRV [ACTC1_Y93_H90Y]" category_label=MET
record_sequence="QELRRYLKSSV [MICA_Y194_G198S]" category_label="NOT MET"
record_sequence="MTFVFYRENLR [NLRP14_Y443_YF]" category_label=MET
record_sequence="ECKASCPGKIT [PRSS3_Y232_Y232C]" category_label="NOT MET"
record_sequence="LTYHMYADPNI [SOS1_Y618_F623I]" category_label=MET
record_sequence="YLQEIHNSNNQ [FGG_Y140_Y140H]" category_label=MET
